# STUDY_SYSTEM: P450 3A4 (human pooled microsomes) (Homo sapiens, UniProt P08684)
# Sequence (P08684 whole entry): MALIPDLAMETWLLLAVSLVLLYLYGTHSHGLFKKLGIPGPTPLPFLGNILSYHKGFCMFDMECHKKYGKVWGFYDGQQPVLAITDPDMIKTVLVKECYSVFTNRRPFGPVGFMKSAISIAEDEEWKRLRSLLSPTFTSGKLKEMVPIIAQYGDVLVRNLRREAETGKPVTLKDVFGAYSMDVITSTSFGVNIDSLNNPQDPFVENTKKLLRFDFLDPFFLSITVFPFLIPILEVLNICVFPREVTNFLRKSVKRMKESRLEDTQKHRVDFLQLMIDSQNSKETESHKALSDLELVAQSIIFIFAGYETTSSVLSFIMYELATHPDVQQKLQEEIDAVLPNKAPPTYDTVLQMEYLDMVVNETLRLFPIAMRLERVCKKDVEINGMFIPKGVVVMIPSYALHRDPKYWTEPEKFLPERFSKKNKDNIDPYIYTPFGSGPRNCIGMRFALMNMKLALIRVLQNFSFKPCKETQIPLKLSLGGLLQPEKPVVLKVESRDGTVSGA
# Sequence (P16435 whole entry partner): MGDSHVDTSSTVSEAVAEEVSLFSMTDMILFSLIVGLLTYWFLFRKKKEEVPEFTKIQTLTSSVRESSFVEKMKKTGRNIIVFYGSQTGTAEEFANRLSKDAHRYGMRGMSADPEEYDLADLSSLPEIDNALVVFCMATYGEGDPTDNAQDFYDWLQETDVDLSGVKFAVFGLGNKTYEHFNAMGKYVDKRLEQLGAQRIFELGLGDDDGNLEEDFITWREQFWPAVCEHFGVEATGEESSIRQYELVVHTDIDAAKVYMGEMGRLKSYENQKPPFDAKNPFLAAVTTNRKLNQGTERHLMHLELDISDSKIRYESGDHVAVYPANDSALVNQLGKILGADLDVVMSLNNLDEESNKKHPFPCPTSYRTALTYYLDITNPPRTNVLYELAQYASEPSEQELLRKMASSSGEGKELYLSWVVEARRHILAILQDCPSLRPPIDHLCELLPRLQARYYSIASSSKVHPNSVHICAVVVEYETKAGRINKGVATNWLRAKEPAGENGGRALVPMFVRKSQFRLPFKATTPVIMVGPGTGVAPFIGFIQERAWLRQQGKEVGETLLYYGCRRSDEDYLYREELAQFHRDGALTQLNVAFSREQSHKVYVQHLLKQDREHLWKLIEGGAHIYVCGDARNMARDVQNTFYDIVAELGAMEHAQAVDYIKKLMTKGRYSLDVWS
# METHOD_SUMMARY: in vitro
# CONDITIONS_USED: human, microsomes

- COMPOUND: "C[C@]12CC[C@H]3[C@@H](CCC4=CC(=O)CC[C@@]43C)[C@@H]1CC[C@@H]2O [testosterone]"
  STUDY_SYSTEM: "P450 3A4 (human pooled microsomes) (Homo sapiens, UniProt P08684)"
  Km (µM): 46

* * *

# STUDY_SYSTEM: P450 3A4 (insect cell microsomes with NADPH-P450 reductase) (Homo sapiens)
# METHOD_SUMMARY: in vitro
MEASUREMENT_TYPE: Km (µM)

- COMPOUND: "C[C@]12CC[C@H]3[C@@H](CCC4=CC(=O)CC[C@@]43C)[C@@H]1CC[C@@H]2O [testosterone]"
  READOUT_NUMBER: 25

Just for reference, patent US5891696A is where these values come from.
